Data origin: patent US20200308290A1

Target: T1, cynomolgous monkey CD25 (cynomolgous monkey)
T1 construct: also called cmCD25; cm
Assay: SPR (BIAcore), cynomolgous CD25
measurement label: Kd
The number alone won't do; follow it with the unit.

// solved cases for Kd follow
binder="Variant C61 (antibody, V domains shown) VH: QVQLVQSGAEVKKPGSSVKVSCKASGYTFTSYRMHWVRQAPGQGLEWMGYISPNSGRTEYNQKFKDKATITADESTNTAYMELSSLRSEDTAVYYCARGGGVFDYWGQGTLVTVSS VL: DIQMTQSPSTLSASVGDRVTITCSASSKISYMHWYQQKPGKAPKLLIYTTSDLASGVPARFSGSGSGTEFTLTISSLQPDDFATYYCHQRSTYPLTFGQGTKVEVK" measurement_label=Kd measured_result="0.055 nM"
binder="Variant C39 (antibody, V domains shown) VH: QVQLVQSGAEVKKPGSSVKVSCKASGYTFTSYRMHWVRQAPGQGLEWMGYISPRKGYTEYNQKFKDKATITADESTNTAYMELSSLRSEDTAVYYCARGGGVFDYWGQGTLVTVSS VL: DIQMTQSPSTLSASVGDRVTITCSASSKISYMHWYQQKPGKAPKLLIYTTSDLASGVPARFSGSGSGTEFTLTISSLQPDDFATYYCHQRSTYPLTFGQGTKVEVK" measurement_label=Kd measured_result="0.031 nM"
binder="Variant C48 (antibody, V domains shown) VH: QVQLVQSGAEVKKPGSSVKVSCKASGYTFTSYRMHWVRQAPGQGLEWMGYIRPKSGYTEYNQKFKDKATITADESTNTAYMELSSLRSEDTAVYYCARGGGVFDYWGQGTLVTVSS VL: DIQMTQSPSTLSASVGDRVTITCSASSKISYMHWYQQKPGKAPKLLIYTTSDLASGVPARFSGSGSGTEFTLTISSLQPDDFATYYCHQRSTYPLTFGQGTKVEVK" measurement_label=Kd measured_result="0.053 nM"
binder="Variant C27 (antibody, name in Kabat numbering, V domains shown, Isotype as printed: G2M3.QL) VH: QVQLVQSGAEVKKPGSSVKVSCKASGYTFTSYRMHWVRQAPGQGLEWMGYINPSSGYTEYNQKFKDKATITADESTNTAYMELSSLRSEDTAVYYCARGGGVFDYWGQGTLVTVSS VL: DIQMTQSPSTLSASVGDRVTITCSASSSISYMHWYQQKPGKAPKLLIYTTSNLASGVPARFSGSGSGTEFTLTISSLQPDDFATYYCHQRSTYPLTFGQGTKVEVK" measurement_label=Kd measured_result="0.263 nM"

Kindly consider the entry below.
Lookup: Fill in Kd for record Variant C45 (antibody, V domains shown) VH: QVQLVQSGAEVKKPGSSVKVSCKASGYTFTSYRMHWVRQAPGQGLEWMGYISPKSGYTEYNQKFKDKATITADESTNTAYMELSSLRSEDTAVYYCARGGGVFDYWGQGTLVTVSS VL: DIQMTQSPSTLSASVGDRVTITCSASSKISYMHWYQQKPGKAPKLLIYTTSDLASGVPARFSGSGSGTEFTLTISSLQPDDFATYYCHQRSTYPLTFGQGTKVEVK
Found: 0.055 nM
